biological target: Δ MT1-MMP (Δ MMP-14) (Homo sapiens); construct: ProMT1-MMP cDNA encoded extracellular domain of pro Δ MT1-MMP was tranfected E. coli BL21DE3; assay: Δ MT1-MMP (Δ MMP-14) inhibitory activities, fluorogenic substrate enzyme assay; details: 37° C., 30 min, substrate 10 μM; read-out: ΔMMP-14 IC50
pIC50: −log10 of the molar value.
Quick rule: pIC50 of at least 7 means True, below that means False.

Task: Tell me whether pIC50 is at least 7 here: COc1ccc(C(=O)N[C@@H]2CCN(S(=O)(=O)c3cccs3)[C@@H](C(=O)NO)C2)cc1 [Compound 50]
Output: True

Task: Tell me whether pIC50 is at least 7 here: COc1ccc(-c2ccc(S(=O)(=O)N3CC[C@@H](NC(C)=O)C[C@@H]3C(=O)NO)cc2)cc1 [Compound 64]
Output: True

Task: Tell me whether pIC50 is at least 7 here: CC(=O)N[C@@H]1CCN(S(=O)(=O)c2ccc(-c3ccc(O)cc3)cc2)[C@@H](C(=O)NO)C1 [Compound 65]
Output: True

Task: Tell me whether pIC50 is at least 7 here: COc1ccc(S(=O)(=O)N2CC[C@H](NC(=O)CCC(C)C)C[C@H]2C(=O)NO)cc1 [Compound 79]
Output: False

Task: Tell me whether pIC50 is at least 7 here: COc1ccc(-c2ccc(S(=O)(=O)N3CC[C@@H](NC(=O)c4ccc([N+](=O)[O-])cc4)C[C@@H]3C(=O)NO)cc2)cc1 [Compound 75]
Output: False

Task: Tell me whether pIC50 is at least 7 here: COc1ccc(-c2ccc(S(=O)(=O)N3CC[C@H](NC(C)=O)C[C@@H]3C(=O)NO)cc2)cc1 [Compound 82]
Output: False

Task: Tell me whether pIC50 is at least 7 here: COc1ccc(OCCCCC(=O)N[C@H]2CCN(S(=O)(=O)c3ccc(OC)cc3)[C@H](C(=O)NO)C2)cc1 [Compound 78]
Output: False

Task: Tell me whether pIC50 is at least 7 here: COc1ccc(-c2ccc(S(=O)(=O)N3CC[C@@H](NCc4ccccc4)C[C@@H]3C(=O)NO)cc2)cc1 [Compound 56]
Output: True

Task: Tell me whether pIC50 is at least 7 here: CC(C)CCC(=O)N[C@@H]1CCN(S(=O)(=O)c2ccc(-c3ccc(Cl)cc3)cc2)[C@@H](C(=O)NO)C1 [Compound 71]
Output: False

Task: Tell me whether pIC50 is at least 7 here: CC(C)CCC(=O)N[C@@H]1CCN(S(=O)(=O)c2cccs2)[C@@H](C(=O)NO)C1 [Compound 51]
Output: True
